System: UniProtKB O70536
Sequence (whole entry): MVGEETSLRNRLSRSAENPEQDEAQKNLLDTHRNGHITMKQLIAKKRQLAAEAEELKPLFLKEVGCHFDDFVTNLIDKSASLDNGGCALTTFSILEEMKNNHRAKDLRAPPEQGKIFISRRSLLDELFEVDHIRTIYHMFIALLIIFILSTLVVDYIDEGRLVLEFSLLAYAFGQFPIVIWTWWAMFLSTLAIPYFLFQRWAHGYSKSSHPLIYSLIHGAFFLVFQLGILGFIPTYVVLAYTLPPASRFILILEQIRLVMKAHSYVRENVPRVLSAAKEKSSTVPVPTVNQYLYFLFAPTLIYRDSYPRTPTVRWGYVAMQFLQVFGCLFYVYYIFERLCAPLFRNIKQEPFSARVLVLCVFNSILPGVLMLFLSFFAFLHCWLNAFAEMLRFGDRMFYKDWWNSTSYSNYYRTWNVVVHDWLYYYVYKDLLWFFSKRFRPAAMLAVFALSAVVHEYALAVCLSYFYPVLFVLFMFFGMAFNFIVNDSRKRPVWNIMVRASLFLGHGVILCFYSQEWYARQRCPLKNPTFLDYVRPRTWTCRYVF
Test details: Serum hypolipidemic activity in rats
Type: functional
SS strictly under 80% means condition met; at 80% or over means condition not met.

Compound: CCCCN(CCCC)C(=O)Nc1ccc(OC)cc1
Class label: condition not met
--
Compound: Cc1ccc(NC(=O)N(Cc2ccccc2)Cc2ccccc2)c(C)c1
Class label: condition met
--
Compound: CCCCN(CCCC)C(=O)Nc1cccc(Cl)c1C
Class label: condition not met
--
Compound: CCCCN(CCCC)C(=O)Nc1cc(Cl)cc(Cl)c1
Class label: condition met
--
Compound: Cc1ccc(NC(=O)N(Cc2ccccc2)Cc2ccccc2)cc1Cl
Class label: condition not met
--
Compound: CCCCc1ccc(NC(=O)N(Cc2ccccc2)Cc2ccccc2)cc1
Class label: condition met
--
Compound: CCCCN(Cc1ccccc1)C(=O)Nc1c(C)cc(C)cc1C
Class label: condition met
--
Compound: CCCCN(CC(c1ccc(Cl)cc1)c1ccc(Cl)cc1)C(=O)Nc1ccc(C)cc1C
Class label: condition not met
--
Compound: COc1cccc(NC(=O)NCc2ccccc2)c1
Class label: condition not met
--
Compound: Cc1c(Cl)cccc1NC(=O)N(CCC(C)(C)C)Cc1cccs1
Class label: condition met
--
Compound: CCCCN(Cc1ccccc1)C(=O)Nc1cc(C)cc(C)c1
Class label: condition not met
--
Compound: CCCCCCCN(Cc1ccco1)C(=O)Nc1cc(C)c(C)cc1C
Class label: condition met
--
Compound: CCCCN(Cc1ccccc1)C(=O)Nc1ccccc1C
Class label: condition not met
--
Compound: CCCCCCCCCCCCCCN(CCCCCCCCCCCCCC)C(=O)Nc1ccc(C)cc1C
Class label: condition not met
--
Compound: CCCCN(Cc1ccccc1)C(=O)Nc1ccc(C)cc1
Class label: condition not met
--
Compound: CCCCCCCCCCN(CCCCCCCCCC)C(=O)Nc1ccc(C)cc1C
Class label: condition met
--
Compound: CCCCN(CCCC)C(=O)Nc1cccc(Cl)c1
Class label: condition not met
--
Compound: O=C(Nc1ccc(Cl)cc1)N(Cc1ccccc1)c1ccccc1
Class label: condition met
--
Compound: CC(C)(C)CCN(Cc1cccs1)C(=O)Nc1c(Cl)cc(Cl)cc1Cl
Class label: condition met
--
Compound: CCCCN(CCCC)C(=O)Nc1ccc(F)c(Cl)c1
Class label: condition not met
--
Compound: COc1ccc(C)cc1NC(=O)N(Cc1ccccc1)Cc1ccccc1
Class label: condition not met
--
Compound: O=C(Nc1ccc(Cl)cc1C(F)(F)F)N(Cc1ccccc1)Cc1ccccc1
Class label: condition met
--
Compound: CCCCN(Cc1ccc2c(c1)OCO2)C(=O)Nc1ccc(C)cc1C
Class label: condition met
--
Compound: CCOC(=O)c1ccc(NC(=O)N(Cc2ccccc2)Cc2ccccc2)cc1
Class label: condition not met
--
Compound: CCCCCCCN(Cc1cccs1)C(=O)Nc1cc(Cl)c(Cl)cc1Cl
Class label: condition met
--
Compound: CCCCN(Cc1ccccc1)C(=O)Nc1ccc(C)cc1C
Class label: condition met
--
Compound: Cc1cccc(NC(=O)N(Cc2ccccc2)Cc2ccccc2)c1C
Class label: condition met
--
Compound: CCCCN(Cc1ccccc1)C(=O)Nc1c(Cl)cc(Cl)cc1Cl
Class label: condition met
--
Compound: O=C(Nc1ccc(Oc2ccccc2)cc1)N(Cc1ccccc1)Cc1ccccc1
Class label: condition met
--
Compound: CC(C)(C)CCN(Cc1cccs1)C(=O)Nc1ccc(F)cc1F
Class label: condition met
--
Compound: CCCCCCCC/C=C/CCCCCCCCN(Cc1ccc(CCCC)cc1)C(=O)Nc1ccc(C)cc1C (stereo in doubt; 161)
Class label: condition not met
--
Compound: CCCCN(CCCC)C(=O)Nc1cccc(C(F)(F)F)c1
Class label: condition not met
--
Compound: Cc1ccc(NC(=O)N(C2CCCC2)C2CCCC2)c(C)c1
Class label: condition not met
--
Compound: Cc1ccc(Cl)cc1NC(=O)N(Cc1ccccc1)Cc1ccccc1
Class label: condition not met
--
Compound: CCCCN(CCCC)C(=O)Nc1cccc(C(C)=O)c1
Class label: condition met
--
Compound: CCCCCCCCCCCCCCCCCCN(CCCCCCCCCCCCCCCCCC)C(=O)Nc1ccc(C)cc1C
Class label: condition not met
--
Compound: CCCCCCCCN(CCCCCCCC)C(=O)Nc1ccc(C)cc1C
Class label: condition met
--
Compound: Cc1ccc(NC(=O)N(CCC(C)C)CCC(C)C)c(C)c1
Class label: condition met
--
Compound: CCCCN(C(=O)Nc1ccc(C)cc1C)c1ccccc1
Class label: condition not met
--
Compound: CCCCN(CCCC)C(=O)Nc1ccccc1
Class label: condition not met
--
Compound: CCCCCCCCCCCCN(CCCCCCCCCCCC)C(=O)Nc1ccc(C)cc1C
Class label: condition not met
--
Compound: CCCCCCCN(Cc1cccs1)C(=O)Nc1cc(C)c(C)cc1C
Class label: condition met

====

System: Sterol O-acyltransferase 1 (Rattus norvegicus)
Test details: In vitro percentage inhibition against acyl coenzyme A:cholesterol acyltransferase derived from rat adrenals
Parameters: concentration or dose not given beside the values
Test parameters: concentration not given here
inhibition by entry:
Readout label: inhibition

Structure: CCCCN(CCCC)C(=O)Nc1ccc(C)cc1C
System: Sterol O-acyltransferase 1 (Rattus norvegicus)
Measured value: 81%

Structure: CCCCN(CCCC)C(=O)Nc1cc(Cl)ccc1C
System: Sterol O-acyltransferase 1 (Rattus norvegicus)
Measured value: 75%

Structure: CCCCN(CCCC)C(=O)Nc1cccc(C)c1
System: Sterol O-acyltransferase 1 (Rattus norvegicus)
Measured value: 78%

Structure: CCCCN(Cc1ccccc1)C(=O)Nc1cc(Cl)cc(Cl)c1
System: Sterol O-acyltransferase 1 (Rattus norvegicus)
Measured value: 91%

Structure: C=CCN(CC=C)C(=O)Nc1ccc(C)cc1C
System: Sterol O-acyltransferase 1 (Rattus norvegicus)
Measured value: 43%

Structure: CCCCN(Cc1ccccc1)C(=O)Nc1cccc(C)c1
System: Sterol O-acyltransferase 1 (Rattus norvegicus)
Measured value: 92%

Structure: CCCCN(Cc1ccccc1)C(=O)Nc1cccc(Cl)c1
System: Sterol O-acyltransferase 1 (Rattus norvegicus)
Measured value: 89%

====

System: Sterol O-acyltransferase 1 (Rattus norvegicus) (UniProt O70536)
Test details: In vitro percentage inhibition against acyl coenzyme A:cholesterol acyltransferase derived from rat adrenals
Parameters: concentration or dose not given beside the values
Test parameters: concentration not given here

Structure: CCCCN(CCCC)C(=O)Nc1ccc(C)c(Cl)c1
Unit label: %
inhibition: 91
--
Structure: CCOC(=O)c1ccc(NC(=O)N(Cc2ccccc2)Cc2ccccc2)cc1
Unit label: %
inhibition: 93
--
Structure: CCCCN(Cc1ccccc1)C(=O)Nc1cc(C)cc(C)c1
Unit label: %
inhibition: 94
--
Structure: CCCCN(CCCC)C(=O)Nc1cc(Cl)c(Cl)cc1Cl
Unit label: %
inhibition: 62
--
Structure: CCCCN(Cc1ccccc1)C(=O)Nc1ccccc1C
Unit label: %
inhibition: 79
--
Structure: CCCCN(Cc1ccccc1)C(=O)Nc1c(Cl)cc(Cl)cc1Cl
Unit label: %
inhibition: 88
--
Structure: CCCCN(CCCC)C(=O)Nc1ccccc1C
Unit label: %
inhibition: 62
--
Structure: Cc1ccc(NC(=O)N(CC(C)C)CC(C)C)c(C)c1
Unit label: %
inhibition: 80
--
Structure: CCCCN(CCCC)C(=O)Nc1ccc(Cl)c(C(F)(F)F)c1
Unit label: %
inhibition: 87
--
Structure: Cc1ccccc1NC(=O)N(Cc1ccccc1)Cc1ccccc1
Unit label: %
inhibition: 77
--
Structure: O=C(Nc1ccc(I)cc1)N(Cc1ccccc1)Cc1ccccc1
Unit label: %
inhibition: 85
--
Structure: CCCCN(CCCC)C(=O)Nc1ccc(C(C)C)cc1
Unit label: %
inhibition: 76
--
Structure: CCCCN(CCCC)C(=O)Nc1c(C)cc(C)cc1C
Unit label: %
inhibition: 74
--
Structure: Cc1ccc(NC(=O)N(CCC(C)C)CCC(C)C)c(C)c1
Unit label: %
inhibition: 89
--
Structure: CCN(CC)C(=O)Nc1ccc(C)cc1C
Unit label: %
inhibition: 18
--
Structure: CCCCOc1ccc(NC(=O)N(Cc2ccccc2)Cc2ccccc2)cc1
Unit label: %
inhibition: 90
--
Structure: CCCCN(Cc1ccccc1)C(=O)Nc1ccc(C)c(C)c1
Unit label: %
inhibition: 87
--
Structure: CCCCN(Cc1ccccc1)C(=O)Nc1cccc(Cl)c1OC
Unit label: %
inhibition: 85
--
Structure: CCCCN(Cc1ccccc1)C(=O)Nc1cccc(C(F)(F)F)c1
Unit label: %
inhibition: 86
